FYI, the data here is from PubChem BioAssay (NCI).

tested on: HCC-2998 colon; test: NCI-60 one-dose screen, 48 h (100 = growth as untreated, 0 = no growth, -100 = all killed); settings: 10 µM unless noted
Compounds without any hit were thinned out: in the full panel of roughly 83,000, 20% have a hit.
Item-by-item account of growth
Write it as a number; the unit % goes unstated.

Worked cases, answers included:
{"Compound": "Oc1c(CCl)cc(Cl)cc1CCl", "growth [%]": 96.5}
{"Compound": "Nc1cc2nc3ccccc3nc2cc1N", "growth [%]": 96.8}
{"Compound": "C[C@@]1(CCCCCCCCCc2ccc(O)cc2)C[C@]2(C)OC(=O)C[C@@H]2OO1", "growth [%]": 105}

Lookup result for `CC1(C)N=C(N)N=C(N)N1c1ccc(CCC(=O)Nc2ccc(S(=O)(=O)F)cc2)c(Cl)c1` ; measured growth: 14.3

Lookup result for N#Cc1c(Br)n(C2OC(CO)C(O)C2O)c2ncnc(N)c12 (centres undefined) ; measured growth: 83.7

Lookup result for `COc1ccc2c(c1)c(-c1nc(-c3c[nH]c4ncccc34)cs1)cn2CCN1CCOCC1` ; measured growth: 74.1

Lookup result for `O=C([O][Hg][c]1ccccc1)c1ccccc1` ; measured growth: 51

Lookup result for CC(C)(C)C(=O)OCOP(=O)(NCc1ccccc1)C1CCCN(O)C1=O (centres undefined) ; measured growth: 24.7
